Assay: Volume of distribution at steady state in Wistar-Han rat at 1 mg/kg, iv after 0.033 to 24 hrs by LC-MS/MS method
Assay type: ADME, organism-based
Conditions: in vivo, read-out: Vdss
recorded metric: Vd (L/kg)
Numbers only, in L/kg.

Query: Return reported Vd; argument: `CC(C)C[C@@H]1NC(=O)[C@H]2CCCN2C(=O)[C@H](CC(C)C)N(C)C(=O)C[C@H](O)[C@H](CC(C)C)NC(=O)[C@H](CC(C)C)N(C)C(=O)[C@@H](CC(C)C)N(C)C(=O)C[C@@H]1O`
Reply: 1.1
